The measurements presented in this section are drawn from PubChem BioAssay AID1159580.

assay: chemical genetic growth profiling, strain panel (AID 1159580);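 also: tested at 20 µM; growth read once vehicle control cultures reached saturation at 30 °C; 1 = growth at the plate median or of vehicle wells; lower values mean less growth of the strain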; details: S. cerevisiae deletion strains, growth OD, locus YHR142W, strain chs7, active compounds read low
Among all 5,500 compounds or so, about 2,000 (36%) were called active. About 18% were inconclusive and are not listed. Some of the results follow.
// assign true if normalized growth falls strictly below 1, else false (ties count as false)

Here are 3 compounds together with their reported answers.
{"record_smiles": "Clc1cccc(Cl)c1NC1=NCCN1", "class_name": "true"}
{"record_smiles": "COc1c2ccoc2c(OC)c2oc(=O)ccc12", "class_name": "true"}
{"record_smiles": "COC(=O)C1=CCCN(C)C1", "class_name": "false"}

Query: Here's an entry: `Oc1ccc(Cl)cc1Cc1cc(Cl)ccc1O` . Is its normalized growth below 1?
Result: true

Query: Please let me know if `COc1c(OC)c2occc2c2oc(=O)ccc12` shows normalized growth below 1.
Result: true

Query: API: query returns whether the compound falls strictly under 1 in normalized growth. Query: `Nc1nc2ncc(=O)[nH]c2c(=O)[nH]1`
Result: true

###

assay: chemical genetic growth profiling, strain panel (AID 1159580);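 also: tested at 20 µM; growth read once vehicle control cultures reached saturation at 30 °C; 1 = growth at the plate median or of vehicle wells; lower values mean less growth of the strain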; settings: S. cerevisiae deletion strains, growth OD, locus YOR083W, strain WHI5, active compounds read low
The campaign covered roughly 5,500 compounds. About 2,000 (36%) were called active. About 18% were inconclusive and are not listed. Some of the results follow.
// classify: if (normalized growth < 1) Fulfilled else Not fulfilled

Please review the following examples before continuing.
{"compound": "COC(=O)[C@@H]1OC(=O)[C@H]2O[C@@]23[C@@]1(C)CCC1[C@@]2(C)CCC(=O)C(C)(C)C2C[C@@H](OC(C)=O)[C@]13C (stereo partly drawn)", "class_name": "Not fulfilled"}
{"compound": "COC(=O)C(O)c1ccccc1 (stereo not drawn)", "class_name": "Not fulfilled"}
{"compound": "O=c1cc(-c2ccccc2O)oc2cc(O)ccc12", "class_name": "Not fulfilled"}
{"compound": "O=S1OCC2C(CO1)C1(Cl)C(Cl)=C(Cl)C2(Cl)C1(Cl)Cl (stereo not drawn)", "class_name": "Fulfilled"}
{"compound": "COc1ccc2c(c1)O[C@H]1c3ccc(OC)cc3OC[C@@H]21", "class_name": "Not fulfilled"}
{"compound": "O=C(O)CN(CC(=O)O)Cc1cc2c(-c3ccccc3C(=O)O)c3cc(CN(CC(=O)O)CC(=O)O)c(=O)cc-3oc2cc1O", "class_name": "Fulfilled"}
{"compound": "Nc1ccc(N=Nc2ccccc2)c(N)n1", "class_name": "Fulfilled"}

Now turn to the next compound.
Query: Dear reviewer, please state whether CC1OC1P(=O)(O)O (stereo not drawn) has normalized growth strictly beneath 1.
Result: Fulfilled

###

For each of the compounds below, state its normalized growth.
test: chemical genetic growth profiling, strain panel (AID 1159580);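 also: tested at 20 µM; growth read once vehicle control cultures reached saturation at 30 °C; 1 = growth at the plate median or of vehicle wells; lower values mean less growth of the strain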; conditions: S. cerevisiae deletion strains, growth OD, locus YJR016C, strain ILV3, active compounds read low
Screen size: about 5,500 compounds; about 2,000 (36%) were called active. Roughly 18% stayed inconclusive and do not appear here. This is one part of the list.
One number for each entry.

Recorded results for 8 compounds are shown here.
{"compound": "Cc1nc(-c2ccc(S(=O)(=O)Nc3ccc(Br)cc3Cl)s2)cs1", "normalized growth": 0.94}
{"compound": "O=[N+]([O-])c1ccc2oc(C(O)c3cccc(Cl)c3)cc2c1 (stereo unspecified)", "normalized growth": 0.954}
{"compound": "O=[N+]([O-])c1ccc2oc(C(O)c3ccc(-c4ccccc4)cc3)cc2c1 (stereo unspecified)", "normalized growth": 0.977}
{"compound": "Cc1onc(-c2c(F)cccc2Cl)c1C(=O)ON=C1C2CC3CC(C2)CC1C3", "normalized growth": 1.04}
{"compound": "Cc1cccc(NC(=S)NNC(=O)CSCc2cccc3ccccc23)c1", "normalized growth": 0.984}
{"compound": "Cc1c(-c2ccnn2C(=O)c2ccco2)cnn1-c1ccccc1", "normalized growth": 0.962}
{"compound": "Cc1ccc(NS(=O)(=O)c2ccc(-c3csc(C)n3)s2)c(C)c1", "normalized growth": 0.983}
{"compound": "Cc1c(C(=O)N(Cc2ccccc2)Cc2cccs2)cnn1-c1ccc(Cl)cc1", "normalized growth": 0.982}

Each of the following entries comes with a recorded value; kindly state normalized growth for each.
1. ClC1=C(C=Nc2ccc(Cl)cc2)CSc2ccc(Cl)cc21
2. CC(C)(C)c1ccc(C(=O)NNc2c(Cl)cccc2Cl)cc1
3. Cc1onc(-c2c(Cl)cccc2Cl)c1C(=O)NC(C)(C)CC(C)(C)C

Result:
1: 0.936; 2: 0.966; 3: 0.992
